src = patent US12581252B2

# measurement target: H1047R PIK3CA enzyme (Homo sapiens, UniProt P42336, H1047R)
# Sequence (P42336 whole entry H1047R): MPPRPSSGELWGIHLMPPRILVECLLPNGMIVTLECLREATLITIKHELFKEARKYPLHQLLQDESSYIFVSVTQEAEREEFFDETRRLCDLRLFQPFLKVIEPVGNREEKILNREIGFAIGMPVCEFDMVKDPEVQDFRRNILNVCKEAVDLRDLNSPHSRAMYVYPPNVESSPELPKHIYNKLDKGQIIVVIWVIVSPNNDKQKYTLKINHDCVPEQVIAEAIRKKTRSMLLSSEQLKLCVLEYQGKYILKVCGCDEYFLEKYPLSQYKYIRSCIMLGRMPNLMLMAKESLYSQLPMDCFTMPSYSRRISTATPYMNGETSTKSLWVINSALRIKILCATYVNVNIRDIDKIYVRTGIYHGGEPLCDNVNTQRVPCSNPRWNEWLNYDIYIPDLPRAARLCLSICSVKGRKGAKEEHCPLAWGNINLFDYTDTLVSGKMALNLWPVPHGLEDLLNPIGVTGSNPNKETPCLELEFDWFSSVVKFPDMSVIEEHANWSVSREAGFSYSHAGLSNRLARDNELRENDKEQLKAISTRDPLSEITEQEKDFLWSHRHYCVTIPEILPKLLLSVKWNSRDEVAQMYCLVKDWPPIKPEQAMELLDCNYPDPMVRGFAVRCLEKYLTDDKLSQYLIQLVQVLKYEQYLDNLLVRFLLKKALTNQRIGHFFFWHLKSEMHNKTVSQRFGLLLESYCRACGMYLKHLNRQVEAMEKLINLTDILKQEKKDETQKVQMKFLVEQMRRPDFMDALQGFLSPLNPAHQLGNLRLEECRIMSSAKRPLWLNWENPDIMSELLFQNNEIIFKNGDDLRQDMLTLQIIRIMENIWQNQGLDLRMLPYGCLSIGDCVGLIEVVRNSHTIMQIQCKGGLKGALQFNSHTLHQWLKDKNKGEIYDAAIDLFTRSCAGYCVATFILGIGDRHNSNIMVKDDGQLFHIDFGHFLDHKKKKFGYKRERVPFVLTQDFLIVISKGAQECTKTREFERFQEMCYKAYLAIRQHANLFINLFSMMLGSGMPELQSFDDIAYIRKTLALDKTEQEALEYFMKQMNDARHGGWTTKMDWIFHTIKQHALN
# Sequence (P27986 whole entry partner): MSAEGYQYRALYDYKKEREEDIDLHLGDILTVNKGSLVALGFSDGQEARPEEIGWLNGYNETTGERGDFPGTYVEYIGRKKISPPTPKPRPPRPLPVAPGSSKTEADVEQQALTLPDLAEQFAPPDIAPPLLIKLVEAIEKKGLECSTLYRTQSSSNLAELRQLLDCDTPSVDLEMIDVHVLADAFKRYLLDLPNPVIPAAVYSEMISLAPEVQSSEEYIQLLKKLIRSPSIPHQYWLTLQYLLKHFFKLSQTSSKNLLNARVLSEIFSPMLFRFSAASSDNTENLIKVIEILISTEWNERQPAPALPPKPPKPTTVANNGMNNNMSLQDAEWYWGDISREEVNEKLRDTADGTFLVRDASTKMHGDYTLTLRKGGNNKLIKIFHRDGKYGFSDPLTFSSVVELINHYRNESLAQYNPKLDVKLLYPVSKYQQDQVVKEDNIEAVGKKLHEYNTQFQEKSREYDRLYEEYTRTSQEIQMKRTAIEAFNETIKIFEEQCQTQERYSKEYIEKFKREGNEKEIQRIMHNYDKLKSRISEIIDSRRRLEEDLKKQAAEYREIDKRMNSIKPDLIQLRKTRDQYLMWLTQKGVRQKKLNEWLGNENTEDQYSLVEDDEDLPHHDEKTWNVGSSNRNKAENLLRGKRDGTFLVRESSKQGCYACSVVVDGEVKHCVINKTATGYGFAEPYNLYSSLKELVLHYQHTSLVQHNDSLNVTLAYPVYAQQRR
# assay comment: ADP-Glo Biochemical PIK3CA Kinase Assay
pIC50: −log10 of the molar value.
Known pIC50 of a selection of compounds

compound | measurement target | measured property | measured
O=C(Nc1cc(Br)cc2c1C(c1cc(F)ccc1Cl)NC2=O)c1ccccc1OC(F)(F)F (stereo not shown) [Compound I-571] | H1047R PIK3CA enzyme (Homo sapiens, UniProt P42336, H1047R) | pIC50 | 5.00 to 6.00
O=C1NC(c2cc(F)ccc2Cl)c2c(NC(=O)N3CCOCC(F)(F)C3)cc(Br)cc21 (stereo not shown) [Compound I-698] | H1047R PIK3CA enzyme (Homo sapiens, UniProt P42336, H1047R) | pIC50 | 4.00 to 5.00
CC(C)(O)Cc1cc(NC(=O)c2cc(F)cc(C(F)(F)F)c2)c2c(c1)C(=O)N[C@@H]2c1cc(F)ccc1Cl [Compound I-622] | H1047R PIK3CA enzyme (Homo sapiens, UniProt P42336, H1047R) | pIC50 | 6.30 to 7.00
O=C(Nc1cccc2c(=O)[nH]n(-c3cccc(Cl)c3)c12)c1cc(F)cc(C(F)(F)F)c1 [Compound I-950] | H1047R PIK3CA enzyme (Homo sapiens, UniProt P42336, H1047R) | pIC50 | 5.00 to 6.00
O=C(Nc1cc(-c2cc3ncccc3[nH]2)cc2c1C(c1cc(F)ccc1Cl)NC2=O)c1cc(F)cc(C(F)(F)F)c1 (stereo not shown) [Compound I-970] | H1047R PIK3CA enzyme (Homo sapiens, UniProt P42336, H1047R) | pIC50 | ≥ 7.00

[ask] What measured pIC50 goes with CC(=O)c1cc(NC(=O)c2cc(F)cc(Cl)c2)c2c(c1)C(=O)NC2c1cc(F)ccc1Cl (stereo not shown) [Compound I-215] ?
[reply] 6.30 to 7.00

[ask] What measured pIC50 goes with O=C(Nc1cccc2c1[C@@H](C13C[C@H]4C[C@@H](C1)C[C@@H](C3)C4)NC2=O)c1cc(F)cc(C(F)(F)F)c1 (racemic) [Compound I-2074] ?
[reply] 4.00 to 5.00

###

# measurement target: H1047R PIK3CA enzyme (Homo sapiens, UniProt P42336, H1047R)
# assay comment: ADP-Glo Biochemical PIK3CA Kinase Assay
pIC50: −log10 of the molar value.
Known pIC50 of a selection of compounds

compound | pIC50
Nc1cc(NC(=O)N2C[C@@H](O)c3ccccc32)c2c(c1)C(=O)N[C@H]2c1cc(F)ccc1Cl (single isomer, unassigned) | ≥ 7.00
O=C(Nc1cc(-c2cnn(-c3nccs3)c2)cc2c1C(c1cc(F)ccc1Cl)NC2=O)c1cc(F)cc(C(F)(F)F)c1 (stereo not shown) | ≥ 7.00
O=C1N[C@@H](c2cc(F)ccc2Cl)c2c(NC(=O)N3CCC[C@](O)(C(F)(F)F)C3)cccc21 (single isomer, unassigned) | 4.00 to 5.00
O=C(Nc1cc(-c2ccc3ncnn3c2)cc2c1[C@@H](c1cc(Cl)ccc1Cl)NC2=O)c1cc(F)cc(C(F)(F)F)c1 | ≥ 7.00
C[S@](=O)(Cc1cc(NC(=O)c2cc(F)cc(C(F)(F)F)c2)c2c(c1)C(=O)N[C@@H]2c1cc(F)ccc1Cl)=NC#N (single isomer, unassigned) [Compound I-1561] | 6.30 to 7.00

[ask] What measured pIC50 goes with O=C(Nc1cccc2c1C(CC1CC=CC1)NC2=O)c1cc(F)cc(C(F)(F)F)c1 (stereo not shown) ?
[reply] 4.00 to 5.00

[ask] What measured pIC50 goes with NC1CCCCC1C(=O)Nc1cc(-c2ccc3ncnn3c2)cc2c1C(c1cc(F)ccc1Cl)NC2=O (stereo not shown) ?
[reply] 4.00 to 5.00

[ask] What measured pIC50 goes with O=C(Nc1cc(Cc2ccc3c(c2)CNC3=O)cc2c1[C@H](c1cc(F)ccc1Cl)NC2=O)c1cc(F)cc(C(F)(F)F)c1 (stereo in doubt) ?
[reply] ≥ 7.00

[ask] What measured pIC50 goes with Cc1ncc(Nc2cc(NC(=O)c3cc(F)cc(C(F)(F)F)c3)c3c(c2)C(=O)NC3c2cc(F)ccc2Cl)cn1 (stereo not shown) ?
[reply] ≥ 7.00
